Provenance of the data: a melting point compilation (Tetko et al.; mined from patent text by program, amines drawn as free bases though some values may be those of a salt)

Value type: melting point

CC(=O)NC1CCn2c1nc1cc(NC(=O)c3cc4cc(F)ccc4n3Cc3cccc(F)c3)cnc12 (stereo unspecified)
282 to 283 °C
CC(N)c1ccc2c(c1)CCCN2C(=O)OC(C)(C)C (stereo unspecified)
73 to 75 °C
CONC(=O)C(Cc1ccccc1)N(C)C(=O)C1CCCCC1C(=O)O (stereo unspecified)
168 to 171 °C
COc1ccc(S(N)(=O)=O)cc1CC(C)=O
138 to 139 °C
CC1c2cc(C(C)(C)C)cc(C(C)(C)C)c2O[PH](=O)Oc2c1cc(C(C)(C)C)cc2C(C)(C)C (stereo unspecified)
209 °C
O=C1CCC(c2ccc(OCC3CO3)c3ccccc23)=NN1 (stereo unspecified)
151 to 155 °C
O=P1(c2ccccc2)OCc2ccccc21 (stereo unspecified)
99 to 101 °C
CC(CCCl)C(=O)Nc1nnc(C(C)(C)C)s1 (stereo unspecified)
124 to 126 °C

What value of measured melting point is listed for CCc1cc([N+](=O)[O-])c(NC(CC)COC)c([N+](=O)[O-])c1COC (stereo unspecified) ?
54 to 55 °C

Name the reported melting point value associated with the compound CC(C)C(NC(=O)Cn1cc(Cc2ccc(F)cc2)cc(NC(=O)OCc2ccccc2)c1=O)C(=O)C(F)(F)F (stereo unspecified)
66 to 72 °C

Give the measured melting point of CCCCOc1ccc(C#CC2(O)CN3CCC2CC3)cn1 (stereo unspecified) .
149 to 151 °C

Fill in: melting point of CC(C)(C)OC(=O)CC[C@H](NC(=O)c1ccc(N)cc1F)C(=O)OC(C)(C)C is ___
91 to 95 °C

Any idea what its melting point is? The compound is CCOc1cc2ncc(C#N)c(Nc3ccc4c(c3)OCCO4)c2cc1OCC
225 to 227 °C

// melting point lookup, key: COc1cc2c(Oc3cccc4[nH]ccc34)ncnc2cc1OCCCN1CCCCC1
80 to 82 °C

What value of melting point has been reported for the following compound? COc1cc(/C=C(\C#N)c2c[nH]c3ccc(OC)cc23)cc(OC)c1
141 °C

Dear colleague, I am looking for the recorded melting point of the following compound: CCC1c2cccn2-c2ccccc2N1S(=O)(=O)c1ccc(OC)c(C)c1 (stereo unspecified)
124 to 126 °C
